tested.on: furin, P09958
Sequence (P09958 whole entry): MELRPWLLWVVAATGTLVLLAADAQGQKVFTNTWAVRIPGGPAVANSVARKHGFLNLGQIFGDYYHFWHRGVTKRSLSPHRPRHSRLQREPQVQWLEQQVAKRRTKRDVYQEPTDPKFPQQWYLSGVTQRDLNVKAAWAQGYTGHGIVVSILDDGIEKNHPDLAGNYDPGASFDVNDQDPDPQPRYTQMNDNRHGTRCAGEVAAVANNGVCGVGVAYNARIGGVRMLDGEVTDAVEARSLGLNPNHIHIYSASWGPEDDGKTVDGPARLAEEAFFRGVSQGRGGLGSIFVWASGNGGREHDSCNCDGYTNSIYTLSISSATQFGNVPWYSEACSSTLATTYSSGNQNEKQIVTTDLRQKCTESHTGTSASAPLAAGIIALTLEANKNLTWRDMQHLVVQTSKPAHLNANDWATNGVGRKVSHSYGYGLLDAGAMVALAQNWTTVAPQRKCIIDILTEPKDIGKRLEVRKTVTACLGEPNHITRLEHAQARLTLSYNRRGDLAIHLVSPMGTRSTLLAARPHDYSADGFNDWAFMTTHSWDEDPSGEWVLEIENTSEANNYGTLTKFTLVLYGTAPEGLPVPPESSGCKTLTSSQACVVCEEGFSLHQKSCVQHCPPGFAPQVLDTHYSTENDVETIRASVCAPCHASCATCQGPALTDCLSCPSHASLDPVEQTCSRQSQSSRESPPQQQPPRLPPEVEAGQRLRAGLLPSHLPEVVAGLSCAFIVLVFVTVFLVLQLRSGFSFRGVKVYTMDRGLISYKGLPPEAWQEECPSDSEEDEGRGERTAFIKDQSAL
assay.overview: furin cleavage Z-score vs untreated control; higher = more cleavage, active = 3.5 or more, inactive = 1 or less, 8 variable residues between constant flanks;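 also: purified furin at 1:10 enzyme:substrate in 50 mM HEPES pH 7.5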
measurement.conditions: 30 min
This is one part of the list. The true hit rate is not given.
readout.name: furin cleavage Z-score
Format: numeric value only, no unit, no commentary.

Solved cases below.
INSERT INTO measurements (sequence_code, result) VALUES
  ('CAAWYLKGKWAGNASASA [HC548]', -0.813),
  ('CARCRRLVREAGNASASA [FS-3185]', 8.44),
  ('CAEPSRLVREAGNASASA [FS-1452]', 4.45),
  ('CARVYRQKRSAGNASASA [FS-561]', 9.77),
  ('CATIMAKNEVAGNASASA [HC1439]', 0.513),
  ('CADREVLYREAGNASASA [HC1009]', 0.787),
  ('CATTPVSGSWAGNASASA [HC43]', 0.074),
  ('CAQLEVVTSTAGNASASA [HC2282]', 0.854);

Continue with the next sequence.
Which furin cleavage Z-score value is on record for CAVVCVSMSYAGNASASA [HC83] ?
-0.758
